The reported measurements were obtained from patent US20260116991A1.

Target: monkey GPC3-His protein (monkey)
Assay: ELISA, monkey GPC3-His coated; antibody 0.004 nM
quantity_name: OD450 nm
No unit in the answer, please; the number alone is enough.

Recorded OD450 nm of hAb003LH2L1a (antibody, human IgG1, V domains shown) VH: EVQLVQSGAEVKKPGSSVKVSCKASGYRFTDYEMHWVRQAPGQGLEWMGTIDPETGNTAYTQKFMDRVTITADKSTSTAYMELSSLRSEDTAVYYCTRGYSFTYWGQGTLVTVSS VL: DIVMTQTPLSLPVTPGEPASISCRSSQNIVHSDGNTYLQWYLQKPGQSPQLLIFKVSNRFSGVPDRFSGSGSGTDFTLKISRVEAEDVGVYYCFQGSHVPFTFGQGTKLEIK , please.
0.16

Lookup hAb006LH2L1 (antibody, human IgG1, V domains shown) VH: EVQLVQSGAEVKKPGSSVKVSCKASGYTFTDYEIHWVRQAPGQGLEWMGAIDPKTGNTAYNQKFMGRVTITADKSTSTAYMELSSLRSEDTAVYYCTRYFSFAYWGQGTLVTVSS VL: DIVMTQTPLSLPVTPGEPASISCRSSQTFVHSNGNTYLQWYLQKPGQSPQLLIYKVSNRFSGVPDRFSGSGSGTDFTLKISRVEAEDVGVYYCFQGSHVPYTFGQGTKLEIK
0.358

Lookup hAb006LH2L1a (antibody, human IgG1, V domains shown) VH: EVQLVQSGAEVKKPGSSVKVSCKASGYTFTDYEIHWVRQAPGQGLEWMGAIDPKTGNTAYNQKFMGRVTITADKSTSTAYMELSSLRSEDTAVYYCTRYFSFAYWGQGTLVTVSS VL: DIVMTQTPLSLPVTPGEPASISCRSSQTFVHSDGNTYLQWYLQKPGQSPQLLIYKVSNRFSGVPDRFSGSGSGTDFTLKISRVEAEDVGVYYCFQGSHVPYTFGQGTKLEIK
0.055
